# Test target: T1, human IL-12Rβ2 expressed on cells (human, UniProt Q99665 24-862)
# T1 sequence: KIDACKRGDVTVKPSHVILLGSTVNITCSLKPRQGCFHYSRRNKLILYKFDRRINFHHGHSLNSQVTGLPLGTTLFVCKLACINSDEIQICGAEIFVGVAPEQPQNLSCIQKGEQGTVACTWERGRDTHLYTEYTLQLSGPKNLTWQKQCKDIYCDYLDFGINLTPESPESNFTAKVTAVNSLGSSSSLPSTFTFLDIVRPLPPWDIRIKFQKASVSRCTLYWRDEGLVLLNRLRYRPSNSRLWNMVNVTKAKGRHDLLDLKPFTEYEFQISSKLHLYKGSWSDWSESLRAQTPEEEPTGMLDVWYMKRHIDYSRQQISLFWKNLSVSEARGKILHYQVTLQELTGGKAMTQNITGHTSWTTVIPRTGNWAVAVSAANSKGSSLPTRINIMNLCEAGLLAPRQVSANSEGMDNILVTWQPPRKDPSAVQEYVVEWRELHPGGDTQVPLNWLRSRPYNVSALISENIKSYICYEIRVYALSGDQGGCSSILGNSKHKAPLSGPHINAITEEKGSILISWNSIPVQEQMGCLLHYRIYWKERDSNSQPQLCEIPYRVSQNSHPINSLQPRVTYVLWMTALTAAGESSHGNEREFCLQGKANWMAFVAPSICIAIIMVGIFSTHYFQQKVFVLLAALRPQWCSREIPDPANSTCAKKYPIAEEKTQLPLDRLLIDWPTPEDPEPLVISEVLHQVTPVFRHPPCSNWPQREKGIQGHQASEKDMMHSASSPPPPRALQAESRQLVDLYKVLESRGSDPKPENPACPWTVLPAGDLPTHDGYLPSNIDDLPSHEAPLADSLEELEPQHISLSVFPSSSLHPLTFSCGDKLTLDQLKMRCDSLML
# Experiment summary: cell-based or functional assay
Measurement label: % Specific Cell Lysis at 0.00125 ug/mL (%)
# number only, unit % dropped from output

Solved entries:
INSERT INTO measurements (binder, experimental_value) VALUES
  ('20400-FcDE (Fc fusion) VHH-Fc chain: QVQLQESGGGLVQPGGSLRLSCAASGRTINAYIMGWFRQAPGKEREFVAAVSGSGGSTYYADSVKGRFTISRDNAKNTVNLQMDNLRSEDTDVYYCAATYESVYLQNPGQYDYWGQGTQVTVSSAPELLGGPDVFLFPPKPKDTLMISRTPEVTCVVVDVSHEDPEVKFNWYVDGVEVHNAKTKPREEQYNSTYRVVSVLTVLHQDWLNGKEYKCKVSNKALPAPEEKTISKAKGQPREPQVYTLPPSRDELTKNQVSLTCLVKGFYPSDIAVEWESNGQPENNYKTTPPVLDSDGSFFLYSKLTVDKSRWQQGNVFSCSVMHEALHNHYTQKSLSLSPGK', 45.4),
  ('20421-FcDE (Fc fusion) VHH-Fc chain: QVQLQESGGGLVQPGGSLRLSCAASGFTFSTYAMSWVRQAPGKGLEWVSAVNSGGLSTDYADSVEGRFTISRDDAKNMLFLQMNRLKPEDTARYYCAKYEDCSDYVCDRAGYWGQGTQVTVSSAPELLGGPDVFLFPPKPKDTLMISRTPEVTCVVVDVSHEDPEVKFNWYVDGVEVHNAKTKPREEQYNSTYRVVSVLTVLHQDWLNGKEYKCKVSNKALPAPEEKTISKAKGQPREPQVYTLPPSRDELTKNQVSLTCLVKGFYPSDIAVEWESNGQPENNYKTTPPVLDSDGSFFLYSKLTVDKSRWQQGNVFSCSVMHEALHNHYTQKSLSLSPGK', 61.3),
  ('anti-IL-12Rβ2-VHH-FcDE clone 21050 (Fc fusion) QVQLQESGGGLVQAGGSLRLSCAASGRTFNNYAMAWFRQAPGKEREFIAAITRSDTTLYIDSVKGRFTISRDNAKNTVALQMNSLKPEDTAVYYCAAGMPYSYSDYPRDSKYDYWGRGTQVTVSSAPELLGGPDVFLFPPKPKDTLMISRTPEVTCVVVDVSHEDPEVKFNWYVDGVEVHNAKTKPREEQYNSTYRVVSVLTVLHQDWLNGKEYKCKVSNKALPAPEEKTISKAKGQPREPQVYTLPPSRDELTKNQVSLTCLVKGFYPSDIAVEWESNGQPENNYKTTPPVLDSDGSFFLYSKLTVDKSRWQQGNVFSCSVMHEALHNHYTQKSLSLSPGK', 42.4);

Notebook: anti-IL-12Rβ2-VHH-FcDE clone 21062 (Fc fusion) QVQLQESGGGLVQPGGSLRLSCAASGISSSRLHVGWFRQSPGKEREFVAAISLSGGTQAYTDSVKGRFTISGDNVKNTAYLQMNSLRPEDTAVYYCAARERFIWTWSDLTYDYWGQGTQVTVSSAPELLGGPDVFLFPPKPKDTLMISRTPEVTCVVVDVSHEDPEVKFNWYVDGVEVHNAKTKPREEQYNSTYRVVSVLTVLHQDWLNGKEYKCKVSNKALPAPEEKTISKAKGQPREPQVYTLPPSRDELTKNQVSLTCLVKGFYPSDIAVEWESNGQPENNYKTTPPVLDSDGSFFLYSKLTVDKSRWQQGNVFSCSVMHEALHNHYTQKSLSLSPGK , % Specific Cell Lysis at 0.00125 ug/mL read as 52.7
